reported-property: melting point

Recorded melting point, per entry:
>>> df
                                 smiles_str  endpoint_value
0  COc1cc(-c2cc(C)nn2-c2cc([N+](=O)[O-])ccc2C)cc(OC)c1OC   102 to 103 °C
1  C=CCOc1cc(-n2nc(C)cc2-c2cc(OC)c(OC)c(OC)c2)ccc1OC     98 to 99 °C
2  CCc1cc(-c2ccc(OC)c(N)c2)n(-c2cc(OC)c(OC)c(OC)c2)n1   114 to 115 °C
3    COc1cc(-n2nc(C)cc2-c2ccccc2)cc(OC)c1OC     77 to 78 °C

Turning to the following compound.
Asked: Please report the recorded melting point for COc1cc(-c2cc(C)nn2-c2cc(OC)c(OC)c(OC)c2)ccc1O .
Given back: 197 to 198 °C
